# targetEntity: T1, recombinant human EGFR extracellular domain with 6xHis (human, UniProt P00533 25-645)
# T1 construct: In-house produced; also called 6xHis EGFR ECD; soluble human EGFR ECD; not shown: 6xHis tag
# methodDescription: SPR competition, competitor Ab-5
assayMetric: % inhibition (%)
Output spec: scalar in %, unitless text.

antibody 1257 (antibody, human IgG1, kappa, V domains shown, Chimeric IgG1 kappa) VH: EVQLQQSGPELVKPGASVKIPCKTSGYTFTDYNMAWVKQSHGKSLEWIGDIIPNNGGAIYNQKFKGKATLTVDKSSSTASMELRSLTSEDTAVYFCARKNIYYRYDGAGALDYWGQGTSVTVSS VL: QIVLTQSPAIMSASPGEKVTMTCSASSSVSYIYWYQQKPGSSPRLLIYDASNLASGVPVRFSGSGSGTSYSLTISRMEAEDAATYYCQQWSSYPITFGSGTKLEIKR	-5
antibody 1208 (antibody, human IgG1, kappa, V domains shown, Chimeric IgG1 kappa; also called clone 1208) VH: EVQLVESGGGLVKPGGSLKLSCAASGFAFSSYDMSWVRQTPEKRLEWVAYIGSGDDNTHYPDSVKGRFTISRHNAKNTLYLQMSSLKSEDTAMYYCARQKYGNYGDTMDYWGQGTSVTVSS VL: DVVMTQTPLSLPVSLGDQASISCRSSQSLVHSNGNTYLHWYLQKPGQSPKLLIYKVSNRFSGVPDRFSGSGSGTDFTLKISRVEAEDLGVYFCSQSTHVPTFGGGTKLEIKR	66
antibody 1030 (antibody, human IgG1, kappa, V domains shown, Chimeric IgG1 kappa) VH: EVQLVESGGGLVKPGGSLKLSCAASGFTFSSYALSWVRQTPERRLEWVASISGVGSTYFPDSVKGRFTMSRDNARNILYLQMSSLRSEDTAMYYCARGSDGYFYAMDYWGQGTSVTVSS VL: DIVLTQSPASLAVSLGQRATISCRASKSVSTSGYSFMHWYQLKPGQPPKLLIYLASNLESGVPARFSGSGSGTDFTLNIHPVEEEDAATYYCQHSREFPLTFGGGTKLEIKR	104
antibody 1284 (antibody, human IgG1, kappa, V domains shown, Chimeric IgG1 kappa) VH: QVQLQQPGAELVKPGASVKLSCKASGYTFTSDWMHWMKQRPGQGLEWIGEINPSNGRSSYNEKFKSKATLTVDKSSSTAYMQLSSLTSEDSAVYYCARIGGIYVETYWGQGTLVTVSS VL: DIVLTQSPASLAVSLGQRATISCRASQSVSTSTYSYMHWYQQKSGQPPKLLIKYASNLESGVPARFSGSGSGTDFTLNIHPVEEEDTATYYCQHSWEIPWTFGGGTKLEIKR	-13

Recorded % inhibition for antibody 1260 (antibody, human IgG1, kappa, V domains shown, Chimeric IgG1 kappa) VH: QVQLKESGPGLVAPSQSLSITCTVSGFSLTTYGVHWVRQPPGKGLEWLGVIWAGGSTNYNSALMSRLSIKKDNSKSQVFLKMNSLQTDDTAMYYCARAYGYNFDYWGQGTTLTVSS VL: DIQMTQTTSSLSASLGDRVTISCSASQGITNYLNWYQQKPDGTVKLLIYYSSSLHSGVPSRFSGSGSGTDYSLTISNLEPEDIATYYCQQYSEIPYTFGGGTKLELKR , please? 1
